- assay_remarks: Stability of DA-7010 in rat plasma under various storage conditions
- Assay type: in vitro ADME
- particulars: short term (room temperature 8 h), nominal 8000 ng/mL, n = 3, mean ± SD
property: recovery at 8 h, 8000 ng/mL (%)

| compound | observed |
| --- | --- |
| C[C@@H]1COB2O[C@H](CN)c3cccc(c32)O1 [DA-7010] | 104 |

###

- assay_remarks: Pharmacokinetic study after single oral administration to rats
- Assay type: in vivo
- particulars: male, Sprague-Dawley, rat, plasma; rats (n = 7), single oral dose 3 mg/kg, mean ± SD
property: AUC(0-inf) (ng·h/mL)

| compound | property | display_unit | observed |
| --- | --- | --- | --- |
| C[C@@H]1COB2O[C@H](CN)c3cccc(c32)O1 [DA-7010] | AUC(0-inf) | ng·h/mL | 5320 |

###

- assay_remarks: Stability of DA-7010 in rat plasma under various storage conditions
- Assay type: in vitro ADME
- particulars: 3 freeze/thaw (–20 °C/room temperature) cycles, nominal 30 ng/mL, n = 3, mean ± SD

| smi | display_unit | recovery at 30 ng/mL |
| --- | --- | --- |
| C[C@@H]1COB2O[C@H](CN)c3cccc(c32)O1 | % | 107 |

###

- assay_remarks: Pharmacokinetic study after single oral administration to mice
- Assay type: in vivo
- particulars: male, ICR, mouse, plasma; mice, single oral dose 3 mg/kg, from mean concentration–time profile (n = 6 per point)

| smi | AUC(0-inf) |
| --- | --- |
| C[C@@H]1COB2O[C@H](CN)c3cccc(c32)O1 | 3920 ng·h/mL |

###

- assay_remarks: Stability of DA-7010 in rat plasma under various storage conditions
- Type: in vitro ADME
- particulars: short term (room temperature 8 h), nominal 30 ng/mL, n = 3, mean ± SD
property: recovery at 8 h, 30 ng/mL (%)

| compound | property | observed |
| --- | --- | --- |
| C[C@@H]1COB2O[C@H](CN)c3cccc(c32)O1 [DA-7010] | recovery at 8 h, 30 ng/mL | 110 |

###

- assay_remarks: Stability of DA-7010 in mouse plasma under various storage conditions
- Format: in vitro ADME
- particulars: short term (room temperature 8 h), nominal 400 ng/mL, n = 3, mean ± SD
property: recovery at 8 h, 400 ng/mL (%)

| compound | observed |
| --- | --- |
| C[C@@H]1COB2O[C@H](CN)c3cccc(c32)O1 [DA-7010] | 97.5 |

###

- assay_remarks: Stability of DA-7010 in dog plasma under various storage conditions
- Format: in vitro ADME
- particulars: 3 freeze/thaw (–20 °C/room temperature) cycles, nominal 400 ng/mL, n = 3, mean ± SD
- Experimental: The stability of DA-7010 in the plasma from the mice, rats, and dogs was evaluated by analyzing 3 replicates of low, medium, and high QC samples under various storage conditions: the bench-top short-term stability (at room temperature for 8 h), post-preparative stability (prepared samples kept in LC vials at 4 °C for 24 h), freeze–thaw stability (3 freeze/thaw (−20 °C/room temperature) cycles), and long-term freezing stability (−20 °C for 1 month). […]
property: recovery at 400 ng/mL (%)

| smi | display_unit | observed |
| --- | --- | --- |
| C[C@@H]1COB2O[C@H](CN)c3cccc(c32)O1 | % | 107 |
